experiment: Storage stability at 40° C. and 75% RH (XRPD); format: physicochemical; settings: a week
property.name: Solid form stability on storage

[[record]]
compound = "CNC(=O)c1ccc(N2C(=S)N(c3cnc(C#N)c(C(F)(F)F)c3)C(=O)C23CCC3)cc1F [Form C]"
observed_value = "stable"

[[record]]
compound = "CNC(=O)c1ccc(N2C(=S)N(c3cnc(C#N)c(C(F)(F)F)c3)C(=O)C23CCC3)cc1F [Form G]"
observed_value = "stable"

[[record]]
compound = "CNC(=O)c1ccc(N2C(=S)N(c3cnc(C#N)c(C(F)(F)F)c3)C(=O)C23CCC3)cc1F [Form F]"
observed_value = "transformed to Form A"

[[record]]
compound = "CNC(=O)c1ccc(N2C(=S)N(c3cnc(C#N)c(C(F)(F)F)c3)C(=O)C23CCC3)cc1F [Form E]"
observed_value = "transformed to Form A"

[[record]]
compound = "CNC(=O)c1ccc(N2C(=S)N(c3cnc(C#N)c(C(F)(F)F)c3)C(=O)C23CCC3)cc1F [Form B]"
observed_value = "stable"

[[record]]
compound = "CNC(=O)c1ccc(N2C(=S)N(c3cnc(C#N)c(C(F)(F)F)c3)C(=O)C23CCC3)cc1F [Form H]"
observed_value = "stable"


Input: Query (compound): CNC(=O)c1ccc(N2C(=S)N(c3cnc(C#N)c(C(F)(F)F)c3)C(=O)C23CCC3)cc1F [Form A] ; field requested: Solid form stability on storage
Output: stable

Input: Now consider CNC(=O)c1ccc(N2C(=S)N(c3cnc(C#N)c(C(F)(F)F)c3)C(=O)C23CCC3)cc1F [Form D] .
Output: stable
